Ref: ChEMBL document CHEMBL3425469

Listed next: entries and their corresponding EC50.
- Test system: Hepatitis C virus
- Experimental protocol: Antiviral activity against Hepatitis C virus genotype 1b harboring F98C mutation transfected in human HuH7 cells after 72 hrs by luciferase assay
- Assay type: functional, cell-based, Hepacivirus hominis
- Measurement context: Huh-7, 72 h
Measurement label: EC50 (µM)

1. O=C(c1nc2scc(C3CC3)n2c1Cl)N1CCN(C2CCCC2)C(=O)C1 27.1
2. O=C(c1nc2sc3ccccc3n2c1Cl)N1CCN(C2CC=CC2)C(=O)C1 3.27

* * *

- Tested on: Hepatitis C virus
- Experimental protocol: Antiviral activity against Hepatitis C virus genotype 1b Con1 infected in human HuH7 cells after 72 hrs by luciferase assay
- Format: functional, cell-based, Hepacivirus hominis
- Measurement context: genotype 1b Con 1, Huh-7, 72 h
pEC50: −log10 of the molar value.
Kindly return t if reported pEC50 is no lower than 6; return f if it is lower.

Molecule	System name	Label class
COc1ccc2c(c1)sc1nc(C(=O)N3CCN(C4CCCC4)C(=O)C3)c(Cl)n12	Hepatitis C virus	f
O=C(c1nc2sc3cc(Br)ccc3n2c1Cl)N1CCN(C2CCCC2)C(=O)C1	Hepatitis C virus	f
O=C(c1nc2sc3ccccc3n2c1Cl)N1CCN([C@H]2CC[C@H](O)CC2)C(=O)C1	Hepatitis C virus	t
O=C(c1nc2sc(Cl)c(C3CC3)n2c1Cl)N1CCN(C2CCCC2)C(=O)C1	Hepatitis C virus	f
O=C1CCCc2c1sc1nc(C(=O)N3CCN(C4CCCC4)C(=O)C3)c(Cl)n21	Hepatitis C virus	f
O=C(c1nc2sccn2c1Cl)N1CCN(C2CCCC2)C(=O)C1	Hepatitis C virus	f
O=C(c1nc2sc3cc(Cl)ccc3n2c1Cl)N1CCN(C2CCCC2)C(=O)C1	Hepatitis C virus	f
Cc1ccc2c(c1)sc1nc(C(=O)N3CCN(C4CCCC4)C(=O)C3)c(Cl)n12	Hepatitis C virus	t
O=C(c1nc2sc3ccccc3n2c1Cl)N1CCN(C2CCCC2)C(=O)C1	Hepatitis C virus	t
O=C(c1nc2sc3ccccc3n2c1Cl)N1CCN(C2CC=CC2)C(=O)C1	Hepatitis C virus	t
CC(C)Cc1c(Cl)sc2nc(C(=O)N3CCN(C4CCCC4)C(=O)C3)c(Cl)n12	Hepatitis C virus	f
O=C(c1nc2scc(C3CC3)n2c1Cl)N1CCN(C2CCCC2)C(=O)C1	Hepatitis C virus	t
O=C(c1nc2scc(C3CC3)n2c1Cl)N1CCN(C2CC=CC2)C(=O)C1	Hepatitis C virus	t
O=C(c1nc2sc3c(n2c1Cl)CCCC3)N1CCN(C2CCCC2)C(=O)C1	Hepatitis C virus	t
CC1CCc2c(sc3nc(C(=O)N4CCN(C5CCCC5)C(=O)C4)c(Cl)n23)C1 (stereo unspecified)	Hepatitis C virus	t
O=C(c1nc2sc3c(n2c1Cl)CCC3)N1CCN(C2CCCC2)C(=O)C1	Hepatitis C virus	t

* * *

- Tested on: Hepatitis C virus
- Experimental protocol: Antiviral activity against Hepatitis C virus genotype 1b Con1 infected in human HuH7 cells after 72 hrs by luciferase assay
- Assay type: functional, cell-based, Hepacivirus hominis
- Measurement context: genotype 1b Con 1, Huh-7, 72 h
pEC50: −log10 of the molar value.
Measurement label: pEC50

1) CC(C)c1cn2c(Cl)c(C(=O)N3CCN(C4CCCC4)C(=O)C3)nc2s1 5.88
2) CC(C)Cc1csc2nc(C(=O)N3CCN(C4CCCC4)C(=O)C3)c(Cl)n12 6.13
3) O=C(c1nc2sc3c(n2c1Cl)CCCCC3)N1CCN(C2CCCC2)C(=O)C1 6.03
4) CC1(C)CCc2c(sc3nc(C(=O)N4CCN(C5CCCC5)C(=O)C4)c(Cl)n23)C1 5.95
5) O=C(c1nc2scc(C3CC3)n2c1Cl)N1CCN([C@H]2CC[C@H](O)CC2)C(=O)C1 6.05
